experiment: Foam height test, Standard Test Method for Foaming Properties of Surface-Active Agents (ASTM 1173-07); type: physicochemical; settings: 1 g/L (0.1 weight %), t = 2 min, 49° C.
readout-name: Foam height at time t = 2 (mm)
Kindly answer with a numeric value in mm, unit omitted.

Some solved cases for reference:
compound	readout-name	reported-result
CCCCCCCCCCCCOC(=O)CCC[N+](C)(C)CC(O)CS(=O)(=O)[O-] (stereo not drawn)	Foam height at time t = 2	135
CCCCCCCCCCCCNC(=O)CCC[N+](C)(C)CCCS(=O)(=O)[O-]	Foam height at time t = 2	123
CCCCCCCCCCCCNC(=O)CCCC[N+](C)(C)CC(O)CS(=O)(=O)[O-] (stereo not drawn)	Foam height at time t = 2	153
CCCCCCCCCCCCOC(=O)CCC[N+](C)(C)CCCS(=O)(=O)[O-]	Foam height at time t = 2	151
CCCCCCCCCCCCNC(=O)CCC[N+](C)(C)CC(O)CS(=O)(=O)[O-] (stereo not drawn)	Foam height at time t = 2	155

Proceed to the following item.
Task: Form field: reported Foam height at time t = 2 of CCCCCCCCCCCCOC(=O)CCCC[N+](C)(C)CC(O)CS(=O)(=O)[O-] (stereo not drawn)
Output: 173

###

assay: Foam height test, Standard Test Method for Foaming Properties of Surface-Active Agents (ASTM 1173-07); format: physicochemical; settings: 10 g/L (1.0 weight %), t = 3 min, 49° C.
readout-name: Foam height at time t = 3 (mm)
Lab book: enter the figure in mm, no units written.

Take a look at these entries with their results.
molecule	readout-unit	Foam height at time t = 3
CCCCCCCCCCCCNC(=O)CCC[N+](C)(C)CCCS(=O)(=O)[O-]	mm	129
CCCCCCCCCCCCNC(=O)CCCC[N+](C)(C)CC(O)CS(=O)(=O)[O-] (stereo not drawn)	mm	170
CCCCCCCCCCCCOC(=O)CCC[N+](C)(C)CCCS(=O)(=O)[O-]	mm	158
CCCCCCCCCCCCOC(=O)CCCC[N+](C)(C)CC(O)CS(=O)(=O)[O-] (stereo not drawn)	mm	180
CCCCCCCCCCCCNC(=O)CCC[N+](C)(C)CC(O)CS(=O)(=O)[O-] (stereo not drawn)	mm	177

// below: Foam height at time t = 3 requested for another molecule
Task: # query: Foam height at time t = 3 of entry CCCCCCCCCCCCOC(=O)CCC[N+](C)(C)CC(O)CS(=O)(=O)[O-] (stereo not drawn)
Output: 162

###

The entries below come with measured Foam height at time t = 1 values attached.
Experiment: Foam height test, Standard Test Method for Foaming Properties of Surface-Active Agents (ASTM 1173-07)
Assay type: physicochemical
Conditions: 10 g/L (1.0 weight %), t = 1 min, 49° C.
Protocol: The Standard Test Method for Foaming Properties of Surface-Active Agents (ASTM 1173-07) for 0.1 wt % and 1.0 wt % was used to determine the foaming properties of the amphoteric compounds of the formula 1 described herein. […] Solutions of each surface-active agent to be measured were prepared in borosilicate glass jars a day ahead of time, using ambient temperature ingredients, and were slowly rolled overnight to homogenize. […] The foam height was recorded each minute for five minutes. […]
Write down the numeric answer in mm and omit the unit.

Solved cases (5 shown):
molecule	readout-name	readout-unit	reported-result
CCCCCCCCCCCCOC(=O)CCCC[N+](C)(C)CC(O)CS(=O)(=O)[O-] (stereo not drawn)	Foam height at time t = 1	mm	190
CCCCCCCCCCCCNC(=O)CCCC[N+](C)(C)CC(O)CS(=O)(=O)[O-] (stereo not drawn)	Foam height at time t = 1	mm	171
CCCCCCCCCCCCNC(=O)CCC[N+](C)(C)CCCS(=O)(=O)[O-]	Foam height at time t = 1	mm	145
CCCCCCCCCCCCOC(=O)CCC[N+](C)(C)CCCS(=O)(=O)[O-]	Foam height at time t = 1	mm	166
CCCCCCCCCCCCOC(=O)CCC[N+](C)(C)CC(O)CS(=O)(=O)[O-] (stereo not drawn)	Foam height at time t = 1	mm	170

Now look at this one.
Task: Which Foam height at time t = 1 is reported for this molecule? CCCCCCCCCCCCNC(=O)CCC[N+](C)(C)CC(O)CS(=O)(=O)[O-] (stereo not drawn)
Output: 180

###

assay: Foam height test, Standard Test Method for Foaming Properties of Surface-Active Agents (ASTM 1173-07); assay type: physicochemical; settings: 1 g/L (0.1 weight %), t = 1 min, 49° C.
# Foam height at time t = 1 per entry
The reply should be a number in mm, with the unit left off.

For orientation, consider the following solved cases.
compound	Foam height at time t = 1 (mm)
CCCCCCCCCCCCOC(=O)CCC[N+](C)(C)CCCS(=O)(=O)[O-]	154
CCCCCCCCCCCCNC(=O)CCC[N+](C)(C)CCCS(=O)(=O)[O-]	133
CCCCCCCCCCCCOC(=O)CCCC[N+](C)(C)CC(O)CS(=O)(=O)[O-] (stereo not drawn)	175
CCCCCCCCCCCCNC(=O)CCC[N+](C)(C)CC(O)CS(=O)(=O)[O-] (stereo not drawn)	157

Task: Fill in the blank: the reported Foam height at time t = 1 of CCCCCCCCCCCCNC(=O)CCCC[N+](C)(C)CC(O)CS(=O)(=O)[O-] (stereo not drawn) is ____.
Output: 156

Task: Entry CCCCCCCCCCCCOC(=O)CCC[N+](C)(C)CC(O)CS(=O)(=O)[O-] (stereo not drawn) has what Foam height at time t = 1?
Output: 139

###

experiment: Foam height test, Standard Test Method for Foaming Properties of Surface-Active Agents (ASTM 1173-07); assay type: physicochemical; settings: 1 g/L (0.1 weight %), t = 0 min, 49° C.
readout-name: Foam height at time t = 0 (mm)
Respond with the bare value in mm.

Some solved entries appear below for comparison.
compound	Foam height at time t = 0 / mm
CCCCCCCCCCCCOC(=O)CCCC[N+](C)(C)CC(O)CS(=O)(=O)[O-] (stereo not drawn) [Example 9]	185
CCCCCCCCCCCCNC(=O)CCCC[N+](C)(C)CC(O)CS(=O)(=O)[O-] (stereo not drawn) [Example 21]	157
CCCCCCCCCCCCNC(=O)CCC[N+](C)(C)CC(O)CS(=O)(=O)[O-] (stereo not drawn) [Example 12]	160
CCCCCCCCCCCCOC(=O)CCC[N+](C)(C)CC(O)CS(=O)(=O)[O-] (stereo not drawn) [Example 4]	142

Task: Query (compound): CCCCCCCCCCCCOC(=O)CCC[N+](C)(C)CCCS(=O)(=O)[O-] [Example 5] ; field requested: Foam height at time t = 0
Output: 157

Task: Requested field: Foam height at time t = 0. Item: CCCCCCCCCCCCNC(=O)CCC[N+](C)(C)CCCS(=O)(=O)[O-] [Example 14]
Output: 143

###

Below is a list of entries, each paired with its recorded Critical micelle concentration (CMC) value.
experiment: Critical micelle concentration from surface tension (Wilhelmy plate, K100C Tensiometer); type: physicochemical; conditions: deionized water, ambient temperature
// return numeric value only (unit: mg/L, not printed)

compound	Critical micelle concentration (CMC) [mg/L]
CCCCCCCCCCCC[N+](C)(C)CCCS(=O)(=O)[O-] [reference compound]	962

Task: # query: Critical micelle concentration (CMC) of entry CCCCCCCCCCCCNC(=O)CCC[N+](C)(C)CCCS(=O)(=O)[O-] [Example 14]
Output: 133.9

Task: What measured Critical micelle concentration (CMC) goes with CCCCCCCCCCCCNC(=O)CCCC[N+](C)(C)CC(O)CS(=O)(=O)[O-] (centres unmarked) [Example 21] ?
Output: 104.5

Task: Give its Critical micelle concentration (CMC) value. Item: CCCCCCCCCCCCOC(=O)CCC[N+](C)(C)CCCS(=O)(=O)[O-] [Example 5]
Output: 53.9

Task: Report Critical micelle concentration (CMC) for CCCCCCCCCCCCNC(=O)CCC[N+](C)(C)CC(O)CS(=O)(=O)[O-] (centres unmarked) [Example 12] please.
Output: 80.9

###

assay: Water solubility: heated to a clear solution, cooled to ambient temperature; assay type: physicochemical; details: ambient temperature after heating to a clear solution
readout-name: solubility in water (wt %)
Write down the numeric answer in wt % and omit the unit.

compound	reported-result
CCCCCCCCCCCCOC(=O)C[N+](C)(C)CCCS(=O)(=O)[O-] [Comparative Example 2, reference compound]	0.92

Now look at this one.
Task: State the recorded solubility in water for this entry: CCCCCCCCCCCCNC(=O)C[N+](C)(C)CCCS(=O)(=O)[O-] [Comparative Example 4, reference compound]
Output: 1.02

###

experiment: Foam height test, Standard Test Method for Foaming Properties of Surface-Active Agents (ASTM 1173-07); format: physicochemical; details: 1 g/L (0.1 weight %), t = 3 min, 49° C.
# Lookup of reported Foam height at time t = 3 keyed by entry
# value in mm; strip the unit string

molecule	Foam height at time t = 3, mm
CCCCCCCCCCCCNC(=O)CCC[N+](C)(C)CCCS(=O)(=O)[O-]	108
CCCCCCCCCCCCOC(=O)CCC[N+](C)(C)CCCS(=O)(=O)[O-]	149
CCCCCCCCCCCCOC(=O)CCC[N+](C)(C)CC(O)CS(=O)(=O)[O-] (stereo not drawn)	132
CCCCCCCCCCCCNC(=O)CCC[N+](C)(C)CC(O)CS(=O)(=O)[O-] (stereo not drawn)	153
CCCCCCCCCCCCNC(=O)CCCC[N+](C)(C)CC(O)CS(=O)(=O)[O-] (stereo not drawn)	151

# context switch: different molecule, same Foam height at time t = 3
Task: I am curious: what Foam height at time t = 3 value has been reported for CCCCCCCCCCCCOC(=O)CCCC[N+](C)(C)CC(O)CS(=O)(=O)[O-] (stereo not drawn) ?
Output: 170
